- test target: UniProt:A0A0H3MC72
- Sequence (A0A0H3MC72 1-488): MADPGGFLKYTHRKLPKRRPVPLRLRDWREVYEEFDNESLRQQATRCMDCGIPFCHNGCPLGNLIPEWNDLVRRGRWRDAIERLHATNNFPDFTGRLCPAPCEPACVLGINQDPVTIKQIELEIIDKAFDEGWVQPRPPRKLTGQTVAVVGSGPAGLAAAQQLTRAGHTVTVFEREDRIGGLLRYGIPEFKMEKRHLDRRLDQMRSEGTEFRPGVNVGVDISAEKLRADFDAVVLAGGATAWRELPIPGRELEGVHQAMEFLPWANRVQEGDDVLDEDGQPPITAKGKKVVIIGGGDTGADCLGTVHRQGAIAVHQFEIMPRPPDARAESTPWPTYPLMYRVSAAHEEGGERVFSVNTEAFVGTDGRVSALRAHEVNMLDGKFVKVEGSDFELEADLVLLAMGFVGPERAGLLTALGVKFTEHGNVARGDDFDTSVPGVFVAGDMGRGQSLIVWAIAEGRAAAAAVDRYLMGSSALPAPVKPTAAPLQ
- assay info: biochemical
- Assay type: binding, Mycobacterium bovis BCG
- measurement setup: read-out: IC50
pIC50: −log10 of the molar value.
parameter measured: pIC50

### Prompt Query the reported pIC50 for UniProt:A0A0H3MC72; item: O=C(Nc1ccccc1)c1ccc(=O)n(Cc2ccc(F)cc2)c1
### Response ≤ 4.52

----------
- test target: (UniProt A0A0H3M9R5)
- Sequence (A0A0H3M9R5 1-518): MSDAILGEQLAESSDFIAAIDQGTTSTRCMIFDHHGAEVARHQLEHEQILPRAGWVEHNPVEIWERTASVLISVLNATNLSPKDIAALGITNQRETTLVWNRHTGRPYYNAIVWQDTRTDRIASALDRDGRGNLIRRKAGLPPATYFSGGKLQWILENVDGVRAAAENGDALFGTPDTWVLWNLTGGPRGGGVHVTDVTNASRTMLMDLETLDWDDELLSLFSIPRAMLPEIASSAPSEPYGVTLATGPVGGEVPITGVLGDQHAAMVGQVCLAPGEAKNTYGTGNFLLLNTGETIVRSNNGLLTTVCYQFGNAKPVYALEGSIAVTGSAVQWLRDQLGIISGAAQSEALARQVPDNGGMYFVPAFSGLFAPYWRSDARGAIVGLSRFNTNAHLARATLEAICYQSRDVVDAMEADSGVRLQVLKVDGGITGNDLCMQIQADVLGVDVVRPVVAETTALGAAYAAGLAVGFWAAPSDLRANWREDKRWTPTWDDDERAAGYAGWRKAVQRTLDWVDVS
- assay info: biochemical
- Type: binding, Mycobacterium bovis BCG
- measurement setup: read-out: IC50
pIC50: −log10 of the molar value.
parameter measured: pIC50

### Prompt GET /values?readout=pIC50&item= O=C(Nc1ccccc1)c1ccc(=O)n(Cc2ccc(F)cc2)c1 [Compound 25]
### Response ≤ 4.52
